Biological target: Solute carrier organic anion transporter family member 1B1 (Homo sapiens, UniProt Q9Y6L6)
Sequence (Q9Y6L6 whole entry): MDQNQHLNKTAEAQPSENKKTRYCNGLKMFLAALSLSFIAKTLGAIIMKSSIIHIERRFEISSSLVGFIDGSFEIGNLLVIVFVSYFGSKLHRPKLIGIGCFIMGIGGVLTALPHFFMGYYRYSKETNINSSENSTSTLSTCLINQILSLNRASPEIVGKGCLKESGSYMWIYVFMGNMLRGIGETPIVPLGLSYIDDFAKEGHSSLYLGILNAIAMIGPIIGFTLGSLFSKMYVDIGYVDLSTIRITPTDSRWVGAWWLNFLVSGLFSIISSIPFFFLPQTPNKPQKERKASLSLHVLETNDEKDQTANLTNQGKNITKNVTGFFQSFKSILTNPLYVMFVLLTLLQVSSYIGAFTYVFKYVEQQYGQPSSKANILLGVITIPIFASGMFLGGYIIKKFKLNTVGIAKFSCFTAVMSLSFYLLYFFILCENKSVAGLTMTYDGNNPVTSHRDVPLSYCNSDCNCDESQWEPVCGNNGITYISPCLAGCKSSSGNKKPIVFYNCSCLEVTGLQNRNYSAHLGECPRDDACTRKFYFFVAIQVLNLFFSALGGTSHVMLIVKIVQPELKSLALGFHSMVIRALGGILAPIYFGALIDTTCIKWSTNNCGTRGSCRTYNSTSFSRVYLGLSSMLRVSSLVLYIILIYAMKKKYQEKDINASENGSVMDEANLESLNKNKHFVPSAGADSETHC
Conditions: chinese hamster, cho, 10 µM
Each entry below lists one item and its recorded residual activity value.
property_measured: residual activity

# compound, readout_value
measured = [
    ("COC(=O)[C@H](c1ccccc1Cl)N1CCc2sccc2C1.O=S(=O)(O)O [CLOPIDOGREL BISULFATE]", "145.3%"),
    ("CC1(C)C[C@@H]2[C@H]1CC[C@]1(C)C[C@@]2(O)CC[C@H]1O", "81.35%"),
    ("CC(=O)O[C@@H]1C[C@@H]2C(C)(C)[C@H](O)C=C[C@@]2(C)[C@@H]2CC[C@@]3(C)C(=CC(=O)O[C@@H]3c3ccoc3)[C@@]12C", "6.132%"),
    ("Cl.Cl.NCCCCN [PUTRESCINE DIHYDROCHLORIDE]", "110.3%"),
    ("CC(C)c1ccc2c(c1O)CC[C@H]1C3=C(CC[C@]21C)C(=O)OC3 [TRIPTOPHENOLIDE]", "120.3%"),
    ("CCCC(=O)Nc1ccc(OCC(O)CNC(C)C)c(C(C)=O)c1.Cl (stereo not drawn) [ACEBUTOLOL HYDROCHLORIDE]", "74.42%"),
    ("C=C1[C@@H]2CC[C@@]3(C)[C@H](c4ccoc4)OC(=O)C[C@]13O[C@H]1CC(=O)C(C)(C)[C@H](C(OC(C)=O)C(=O)OC)[C@]12C (stereo partly drawn) [METHYL 6-ACETOXYANGOLENSATE]", "11.95%"),
    ("C=CC(C1=CC(=O)C=CC1=O)c1ccccc1 (stereo not drawn) [DALBERGIONE]", "72.19%"),
]
